Let's look at some molecules and their measured Ki.
# tested_target: D1 dopamine receptors (Rattus norvegicus)
# Construct: Striatal samples from the brains of male Charles River CD rats
# Sequence (P18901 whole entry): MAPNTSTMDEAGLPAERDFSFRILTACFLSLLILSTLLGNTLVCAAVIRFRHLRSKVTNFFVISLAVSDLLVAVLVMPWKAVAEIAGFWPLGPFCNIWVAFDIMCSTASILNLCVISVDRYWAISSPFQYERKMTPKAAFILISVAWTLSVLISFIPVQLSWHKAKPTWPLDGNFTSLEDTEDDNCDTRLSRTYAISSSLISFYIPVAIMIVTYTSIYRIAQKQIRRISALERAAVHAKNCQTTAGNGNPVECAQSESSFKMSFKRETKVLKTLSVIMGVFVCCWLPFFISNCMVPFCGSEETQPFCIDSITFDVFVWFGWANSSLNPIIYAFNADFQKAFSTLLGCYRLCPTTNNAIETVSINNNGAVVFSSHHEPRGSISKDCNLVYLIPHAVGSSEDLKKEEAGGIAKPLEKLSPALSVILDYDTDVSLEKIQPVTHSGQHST
# experimental_details: D1 dopamine receptor binding: inhibition of tritiated SCH 23390 binding, rat striatal samples
# applied_conditions: rat striatum, tritiated SCH 23390, pH 7.4, 37° C., 30 minutes
I only need the number, in nM, no unit after it.

molecule: CN1CCc2cc(O)c(O)cc2C1C1(c2ccccc2C(F)(F)F)CCC1 (stereo not drawn)
outcome_measure: Ki
result_value: 18

molecule: CN1CCc2cc(Cl)c(O)cc2C1C1(c2ccccc2Br)CCC1 (stereo not drawn)
outcome_measure: Ki
result_value: 0.4

molecule: CN1CCc2cc(O)c(O)cc2C1C1(c2ccc(-c3ccccc3)cc2)CCC1 (stereo not drawn)
outcome_measure: Ki
result_value: 94

Exercise: Please supply the value of reported Ki for the item CN1CCc2cc(F)c(O)cc2C1C1(c2ccccc2Cl)CC1 (single isomer, unassigned; (+)) [Example 62]
Solution: 0.38

Exercise: Please supply the value of reported Ki for the item CN1CCc2cc(O)c(O)cc2C1C1(c2ccccc2Cl)CCC1 (stereo not drawn)
Solution: 7.2

Exercise: Please supply the value of reported Ki for the item CN1CCc2cc(O)c(O)cc2C1C1(c2ccccc2Br)CCC1 (single isomer, unassigned; (+)) [Example 60]
Solution: 2.8

Exercise: Please supply the value of reported Ki for the item COc1cc2c(cc1O)C(C1(c3ccccc3Cl)CCC1)N(C)CC2 (stereo not drawn) [Example 35]
Solution: 1.3

Exercise: Please supply the value of reported Ki for the item COc1cc2c(cc1O)C(C1(c3ccccc3Cl)CC1)N(CCO)CC2 (stereo not drawn)
Solution: 60

Exercise: Please supply the value of reported Ki for the item CN1CCc2cc(F)c(O)cc2C1C1(c2ccccc2Cl)CC1 (stereo not drawn) [Example 61]
Solution: 0.18

Exercise: Please supply the value of reported Ki for the item COc1cc2c(cc1O)C(C1(c3cc(OC)c(OC)cc3Br)CCC1)N(C)CC2 (stereo not drawn)
Solution: 2.3

Exercise: Please supply the value of reported Ki for the item CN1CCc2cc(F)c(O)cc2C1C1(c2ccccc2Cl)CCC1 (stereo not drawn) [Example 24]
Solution: 1.9
